// compounds with reported IC50 on Tyrosine-protein kinase receptor UFO (Homo sapiens, UniProt P30530), multi-publication
Sequence (P30530 whole entry): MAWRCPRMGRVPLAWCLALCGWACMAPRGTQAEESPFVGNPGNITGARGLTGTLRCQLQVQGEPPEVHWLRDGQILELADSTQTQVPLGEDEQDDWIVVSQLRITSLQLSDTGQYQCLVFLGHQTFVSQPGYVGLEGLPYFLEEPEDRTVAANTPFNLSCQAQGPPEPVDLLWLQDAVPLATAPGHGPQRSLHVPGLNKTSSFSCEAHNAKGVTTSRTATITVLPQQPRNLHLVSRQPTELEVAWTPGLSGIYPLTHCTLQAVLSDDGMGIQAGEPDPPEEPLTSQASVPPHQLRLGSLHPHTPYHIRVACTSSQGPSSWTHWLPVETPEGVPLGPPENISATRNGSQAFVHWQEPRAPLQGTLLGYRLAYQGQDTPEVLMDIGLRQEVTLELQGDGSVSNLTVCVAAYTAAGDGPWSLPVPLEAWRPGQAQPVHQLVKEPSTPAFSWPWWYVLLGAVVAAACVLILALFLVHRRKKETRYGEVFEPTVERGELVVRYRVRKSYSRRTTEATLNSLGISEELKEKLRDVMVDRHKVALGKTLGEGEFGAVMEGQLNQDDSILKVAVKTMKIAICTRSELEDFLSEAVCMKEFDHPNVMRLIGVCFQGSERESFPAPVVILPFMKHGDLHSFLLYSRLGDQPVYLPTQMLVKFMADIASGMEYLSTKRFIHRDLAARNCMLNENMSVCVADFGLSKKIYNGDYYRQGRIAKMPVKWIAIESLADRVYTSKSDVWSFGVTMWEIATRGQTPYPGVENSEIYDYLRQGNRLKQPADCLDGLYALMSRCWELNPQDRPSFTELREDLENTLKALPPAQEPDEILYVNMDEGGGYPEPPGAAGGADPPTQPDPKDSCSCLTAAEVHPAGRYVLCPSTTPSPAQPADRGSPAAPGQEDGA
Form entry: value (nM) — number only.

Sample records with IC50:
{"columns": ["structure.smiles", "IC50, nM"],
 "data": [
  ["CC(C)Cn1cc(C(=O)Nc2ccc(Oc3ncnc4c3CCN(CC3CCN(C)CC3)C4)c(F)c2)c(=O)n(-c2ccc(F)cc2)c1=O", 5.5],
  ["CC(C)n1cc(C(=O)Nc2ccc(Oc3ncnc4c3CN(C)CC4)c(F)c2)c(=O)n(-c2ccc(F)cc2)c1=O", 64],
  ["COc1cc2c(Oc3ccc(NS(=O)(=O)c4ccccc4C(F)(F)F)cc3F)ccnc2cc1OCCCN1CCC(C)CC1", 21]
]}

Task: Identify measured IC50 obtained with Tyrosine-protein kinase receptor UFO (Homo sapiens, UniProt P30530) for CCN1CCN(c2ccc(-c3nn(CC4CCCC4)c4nc(NC)ncc34)cn2)CC1 .
Output: 260
